Measured pIC50 values are reported for all entries that follow.
# experiment summary: Tested for the inhibition of KB cell growth
# Type: functional, cell-based
# reported conditions: Homo sapiens
The scale used: pIC50 is minus the common logarithm of the concentration in molar units.

compound | pIC50
Nc1nnc(O)c2c1c(Cl)cn2C1O[C@H](CO)[C@@H](O)[C@H]1O (stereo partly specified) | 5.21

QUERY: Give the reported value of pIC50 for this record: Nc1nncc2c1c(Br)cn2C1O[C@H](CO)[C@@H](O)[C@H]1O (stereo partly specified)
RESULT: 4.92

QUERY: Give the reported value of pIC50 for this record: Nc1nnc(O)c2c1c(I)cn2C1O[C@H](CO)[C@@H](O)[C@H]1O (stereo partly specified)
RESULT: 5.92

QUERY: Give the reported value of pIC50 for this record: Nc1ncnc2c1c(Br)cn2[C@@H]1O[C@H](CO)[C@@H](O)[C@H]1O
RESULT: 5.52
